# assay-comment: Aqueous solubility of the compound
# Type: physicochemical
measured-metric: solubility (µM)
Record the value in µM, omitting the unit from your answer.

compound O=c1ccc2cnc3ccc(-c4ccc(N5CCNCC5)nc4)cc3c2n1-c1cccc(C(F)(F)F)c1 , solubility observed: 22

---

# Tested on: HeLa
# assay-comment: Growth inhibition of human HeLa cells measured after 72 hrs by Celltiter-Glo assay
# Type: functional
Quick reference: GI50 of the listed items.
Provide only the numeric value, understood in nM.

Worked examples follow.
• O=c1ccc2cnc3ccc(-c4ccc(N5CCNCC5)nc4)cc3c2n1-c1cccc(C(F)(F)F)c1 = 50.4
• O=c1ccc2cnc3ccc(-c4ccc(N5CCOCC5)nc4)cc3c2n1-c1cccc(C(F)(F)F)c1 = 330
• Nc1cnc(-c2ccc3ncc4ccc(=O)n(-c5cccc(C(F)(F)F)c5)c4c3c2)cn1 = 121

Measured on HeLa, Nc1ccc(-c2ccc3ncc4ccc(=O)n(-c5cccc(C(F)(F)F)c5)c4c3c2)cn1 has a documented GI50 of 98
